- TARGET_SYSTEM: PIK3CG (human) (UniProt P48736)
- Sequence (P48736 whole entry, looked up): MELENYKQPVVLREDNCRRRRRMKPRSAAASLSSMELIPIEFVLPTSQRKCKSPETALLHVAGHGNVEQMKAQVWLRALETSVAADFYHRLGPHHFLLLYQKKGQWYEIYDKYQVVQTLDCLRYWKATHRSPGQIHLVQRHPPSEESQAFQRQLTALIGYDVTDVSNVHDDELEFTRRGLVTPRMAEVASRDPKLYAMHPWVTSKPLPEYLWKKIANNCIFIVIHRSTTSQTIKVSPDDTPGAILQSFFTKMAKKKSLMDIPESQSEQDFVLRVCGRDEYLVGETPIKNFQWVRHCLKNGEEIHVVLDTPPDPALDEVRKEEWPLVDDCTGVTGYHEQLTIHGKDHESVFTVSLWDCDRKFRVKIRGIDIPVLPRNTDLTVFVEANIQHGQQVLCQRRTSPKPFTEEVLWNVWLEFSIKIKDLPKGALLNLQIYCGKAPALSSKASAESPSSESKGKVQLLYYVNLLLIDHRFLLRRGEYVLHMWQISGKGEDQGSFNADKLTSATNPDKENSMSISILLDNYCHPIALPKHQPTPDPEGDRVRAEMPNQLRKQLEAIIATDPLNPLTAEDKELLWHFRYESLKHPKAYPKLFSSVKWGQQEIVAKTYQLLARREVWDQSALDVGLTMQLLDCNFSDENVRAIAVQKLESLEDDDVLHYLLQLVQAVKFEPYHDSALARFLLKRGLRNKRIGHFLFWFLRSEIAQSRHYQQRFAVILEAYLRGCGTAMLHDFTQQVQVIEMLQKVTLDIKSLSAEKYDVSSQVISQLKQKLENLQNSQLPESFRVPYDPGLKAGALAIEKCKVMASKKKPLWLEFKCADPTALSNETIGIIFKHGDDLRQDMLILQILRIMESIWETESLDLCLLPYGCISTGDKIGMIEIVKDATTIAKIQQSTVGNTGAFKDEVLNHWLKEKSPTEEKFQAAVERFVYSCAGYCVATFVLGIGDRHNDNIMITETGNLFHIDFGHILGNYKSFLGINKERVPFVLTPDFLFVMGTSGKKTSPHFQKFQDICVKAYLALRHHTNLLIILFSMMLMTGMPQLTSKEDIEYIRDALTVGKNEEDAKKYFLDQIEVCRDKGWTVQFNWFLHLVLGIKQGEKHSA
- ASSAY_SUMMARY: Cell-Based Assay
- MEASUREMENT_PARAMETERS: u937
QUANTITY_KIND: IC50 (nM)

> print(dat)
                                 smiles.str  quantity.kind  value.operator  numeric.result
1  O=c1c2c(Cl)cccc2nc([C@@H]2CCCN2c2ncnc3scnc23)n1-c1ccccc1           IC50               =             215
2  CO[C@H]1C[C@@H](c2nc3cccc(Cl)c3c(=O)n2-c2ccccc2)N(c2nc(N)nc(C)c2C#N)C1           IC50               =              38
3  N#Cc1c(N)ncnc1N1CSC[C@H]1c1nc2cccc(Cl)c2c(=O)n1-c1ccccc1           IC50               >           10000

----------
# IC50 listing for each entry below
- TARGET_SYSTEM: PIK3CG (human)
- ASSAY_SUMMARY: Enzyme Assay
QUANTITY_KIND: IC50 (nM)

> print(dat)
                                  smiles.str  numeric.result
 1  Nc1nc(N2CCC[C@H]2c2nc3cccc(C(F)(F)F)c3c(=O)n2-c2ccccc2)c2nccn2n1              93
 2  Cc1nc(N)nc(N2C[C@@H](O)C[C@H]2c2nc3cccc(C(F)(F)F)c3c(=O)n2-c2cc(F)cc(F)c2)c1C#N             890
 3  Nc1nc(N2CCC[C@H]2c2nc3cccc(Cl)c3c(=O)n2-c2ccccc2)c2ncsc2n1              19
 4  CO[C@H]1C[C@@H](c2nc3cccc(C(F)(F)F)c3c(=O)n2-c2ccccc2)N(c2nc(N)nc(C)c2C#N)C1             107
 5  Cc1ccccc1-n1c([C@@H]2CSCN2c2ncnc(N)c2C#N)nc2cccc(Cl)c2c1=O             148
 6  Nc1nc(N2C[C@@H](F)C[C@H]2c2nc3cccc(C(F)(F)F)c3c(=O)n2-c2ccccc2)c2nc[nH]c2n1               9
 7  Cc1nc(N)nc(N2CCC[C@H]2c2nc3cccc(C(F)(F)F)c3c(=O)n2-c2cccnc2)c1C#N             180
 8  N#Cc1c(N)ncnc1N1C[C@@H](O)C[C@H]1c1nc2cccc(C(F)(F)F)c2c(=O)n1-c1cccnc1            1300
 9  N#Cc1c(N)ncnc1N1C[C@@H](O)C[C@H]1c1nc2ccc(F)c(F)c2c(=O)n1-c1ccccc1            1300
10  Nc1nc(N2C[C@@H](O)C[C@H]2c2nc3cccc(C(F)(F)F)c3c(=O)n2-c2ccccc2)c2nccn2n1              31
11  Cc1nc(N)nc(N2C[C@@H](O)C[C@H]2c2nc3ccc(F)c(Cl)c3c(=O)n2-c2ccccc2)c1C#N              14
12  Cc1nc(N)nc(N2CCC[C@H]2c2nc3ccc(F)c(S(C)(=O)=O)c3c(=O)n2-c2ccccc2)c1C#N            1100
13  Cn1cnc2c(N3CCC[C@H]3c3nc4cccc(Cl)c4c(=O)n3-c3ccccc3)nc(N)nc21             305
14  CS(=O)(=O)c1cccc2nc([C@@H]3CCCN3c3ncnc(N)c3C#N)n(-c3ccccc3)c(=O)c12            1200
15  O=c1c2c(Cl)cccc2nc([C@@H]2CCCN2c2ncnc3scnc23)n1-c1ccccc1              81
16  Cc1nc(N)nc(N2CCC[C@H]2c2nc3ccc(F)c(F)c3c(=O)n2-c2ccccc2)c1C#N              41
17  O=c1c2c(Cl)cccc2nc([C@@H]2CCCN2c2ncnc3[nH]cnc23)n1N1CCCCC1             200

----------
- TARGET_SYSTEM: PIK3CD (Human)
- ASSAY_SUMMARY: Cell-Based Assay
- MEASUREMENT_PARAMETERS: rat-1
QUANTITY_KIND: log10 IC50 (log10 of the value in nM)

> print(dat)
                                 smiles.str  numeric.result
1  N#Cc1c(N)ncnc1N1OCC[C@H]1c1nc2cccc(Cl)c2c(=O)n1-c1ccccc1            1.15
2  N#Cc1c(N)ncnc1N1CCC[C@H]1c1nc2cccc(Cl)c2c(=O)n1C1CCCCC1            1.11
3  COc1ccc(-n2c([C@@H]3CCCN3c3ncnc4[nH]cnc34)nc3cccc(Cl)c3c2=O)cn1            3.15
4  O=c1c2c(Cl)cccc2nc([C@@H]2CCCN2c2ncnc3[nH]cnc23)n1-c1cccnc1            1.92
5  Cc1nc(N)nc(N2C[C@@H](O)C[C@H]2c2nc3ccc(F)c(Cl)c3c(=O)n2-c2ccccc2)c1C#N            1.00
6  Cc1nc(N)nc(N2C[C@@H](O)C[C@H]2c2nc3ccc(F)c(C)c3c(=O)n2-c2ccccc2)c1C#N            0.85
7  CS(=O)(=O)c1cccc2nc([C@@H]3CCCN3c3ncnc(N)c3C#N)n(-c3ccccc3)c(=O)c12            1.58
8  Cc1nc(N)nc(N2C[C@@H](O)C[C@H]2c2nc3cccc(F)c3c(=O)n2-c2ccccc2)c1C#N            1.38

----------
# pIC50 listing for each entry below
- TARGET_SYSTEM: PIK3CG (human) (UniProt P48736)
- ASSAY_SUMMARY: Enzyme Assay
pIC50: −log10 of the molar value.
QUANTITY_KIND: pIC50

> print(dat)
                                  smiles.str  quantity.kind  value.operator  numeric.result
 1  CS(=O)(=O)c1c(F)ccc2nc([C@@H]3CCCN3c3ncnc(N)c3C#N)n(-c3ccccc3)c(=O)c12          pIC50               =            5.14
 2  Cc1nc(N)nc(N2CCC[C@H]2c2nc3cccc(C(F)(F)F)c3c(=O)n2-c2cncnc2)c1C#N          pIC50               =            6.64
 3  Cc1nc(N)nc(N2C[C@@H](O)C[C@H]2c2nc3cccc(C(F)(F)F)c3c(=O)n2-c2ccccc2)c1C#N          pIC50               =            8.30
 4  O=c1c2c(Cl)cccc2nc([C@@H]2CCON2c2ncnc3[nH]cnc23)n1-c1ccccc1          pIC50               =            6.01
 5  CO[C@H]1C[C@@H](c2nc3cccc(Cl)c3c(=O)n2N2CCOCC2)N(c2ncnc(N)c2C#N)C1          pIC50               =            6.42
 6  COc1cccc2nc([C@@H]3CCCN3c3ncnc(N)c3C#N)n(-c3ccccc3)c(=O)c12          pIC50               =            5.28
 7  Cc1nc(N)nc(N2CCC[C@H]2c2nc3cccc(C(F)(F)F)c3c(=O)n2-c2ccccc2)c1C#N          pIC50               =            7.34
 8  N#Cc1c(N)ncnc1N1C[C@@H](F)C[C@H]1c1nc2cccc(C(F)(F)F)c2c(=O)n1-c1ccccc1          pIC50               =            7.26
 9  N#Cc1c(N)ncnc1N1CCC[C@H]1c1nc2cccc(Cl)c2c(=O)n1C1CCCCC1          pIC50               =            5.96
10  COC(=O)N1CC[C@@H](n2c([C@@H]3CCCN3c3ncnc4[nH]cnc34)nc3cccc(Cl)c3c2=O)C1          pIC50               <            5.00
11  Cc1nc(N)nc(N2C[C@@H](O)C[C@H]2c2nc3cccc(Cl)c3c(=O)n2-c2ccccc2)c1C#N          pIC50               =            7.74
12  O=c1c2c(Cl)cccc2nc([C@@H]2C[C@H](O)CN2c2ncnc3[nH]cnc23)n1-c1ccccc1          pIC50               =            7.72
13  N#Cc1c(N)ncnc1N1CCC[C@H]1c1nc2cccc(Cl)c2c(=O)n1-c1cccnc1          pIC50               =            6.82
14  O=c1c2c(Cl)cccc2nc([C@@H]2CCON2c2ncnc3scnc23)n1-c1ccccc1          pIC50               =            7.09
15  N#Cc1c(N)ncnc1N1CSC[C@H]1c1nc2cccc(Cl)c2c(=O)n1-c1ccccc1          pIC50               =            6.89
16  N#Cc1c(N)ncnc1N1CCC[C@H]1c1nc2cccc(O)c2c(=O)n1-c1ccccc1          pIC50               =            6.96
17  O=c1c2c(Cl)cccc2nc([C@@H]2CCCN2c2ncnn3ccnc23)n1-c1ccccc1          pIC50               =            6.99
18  Nc1nc(N2CCC[C@H]2c2nc3cc(F)cc(F)c3c(=O)n2-c2ccccc2)c2nc[nH]c2n1          pIC50               =            5.37
